- TARGET OR SYSTEM: Peroxisome proliferator-activated receptor gamma (Mus musculus, UniProt P37238)
- Sequence (P37238 whole entry): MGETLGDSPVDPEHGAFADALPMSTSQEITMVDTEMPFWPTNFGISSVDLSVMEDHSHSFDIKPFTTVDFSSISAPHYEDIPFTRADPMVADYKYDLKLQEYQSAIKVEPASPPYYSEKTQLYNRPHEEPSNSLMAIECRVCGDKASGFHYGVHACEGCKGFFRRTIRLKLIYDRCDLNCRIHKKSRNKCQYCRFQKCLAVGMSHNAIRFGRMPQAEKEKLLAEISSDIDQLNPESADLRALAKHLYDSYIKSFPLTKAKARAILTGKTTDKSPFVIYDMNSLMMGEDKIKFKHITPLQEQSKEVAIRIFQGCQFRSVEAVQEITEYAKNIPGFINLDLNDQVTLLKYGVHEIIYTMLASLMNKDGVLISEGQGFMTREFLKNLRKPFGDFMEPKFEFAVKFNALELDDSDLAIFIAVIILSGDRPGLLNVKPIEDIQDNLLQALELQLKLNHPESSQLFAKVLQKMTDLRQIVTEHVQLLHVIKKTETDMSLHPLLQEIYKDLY
- EXPERIMENTAL DETAILS: Agonist activity at PPAR gamma in mouse 3T3L1 cells assessed as increase in insulin receptor by IRBA
# EC50 values compiled below
The answer is to be given in nM; state only the numeric part.

Recorded results for 6 compounds are shown here.
>>> data_value("CCCc1cc(-c2nc(CO)c(C(=O)O)s2)ccc1OCCCOc1ccc2c(c1)CC[C@H]2CC(=O)O")
891
>>> data_value("Cc1c(OCCCOc2ccc3c(c2)CC[C@H]3CC(=O)O)ccc2[nH]ccc12")
6850
>>> data_value("O=C(O)C[C@@H]1CCc2cc(OCCCOc3ccc(-c4cncnc4)cc3)ccc21")
970
>>> data_value("COc1cc(C#N)ccc1OCCCOc1ccc2c(c1)CC[C@H]2CC(=O)O")
700
>>> data_value("O=C(O)C[C@@H]1CCc2cc(OCCCOc3ccc(-c4ccc5cc[nH]c5c4)cc3)ccc21")
740
>>> data_value("COc1cc(-c2nc(C)c(C(C)=O)s2)ccc1OCCCOc1ccc2c(c1)CC[C@H]2CC(=O)O")
49

Problem: Any idea what EC50 was measured for Cc1ccc(OCCCOc2ccc3c(c2)CC[C@H]3CC(=O)O)c(C)c1 ?
Result: 2180

Problem: Record: Cc1cccc(-c2ccc(OCCCOc3ccc4c(c3)CC[C@H]4CC(=O)O)cc2)n1
Result: 550

Problem: Record: O=C(O)C[C@@H]1CCc2cc(OCCCOc3ccc(-n4cnnc4)cc3Cl)ccc21
Result: 8700

Problem: Record: CCCc1cc(-c2nc(OCC)cs2)ccc1OCCCOc1ccc2c(c1)CC[C@H]2CC(=O)O
Result: 41

Where do these numbers come from? They come from ChEMBL document CHEMBL1142242.
